- System: CCRF-CEM cell line
- protocol.description: CCRF-CEM cell growth inhibition
- Format: cell-based
- experimental.parameters: Homo sapiens, read-out: IC50, concentration inhibiting cell growth of a CCRF-CEM cell line by 50% as compared to control
reported.metric: IC50 (µg/mL)

compound | readout.unit | IC50
Nc1nc(O)c2c(n1)NCC(CCc1ccc(C(=O)N[C@@H](CCS(=O)(=O)O)C(=O)O)s1)C2 (stereo partly shown) | µg/mL | 0.82

1: Nc1nc(O)c2c(n1)NCC(CCc1ccc(C(=O)N[C@@H](CCC(=O)N[C@H](CC(=O)O)C(=O)O)C(=O)O)cc1)C2 (stereo partly shown)
2: CCOC(=O)CC[C@@H](NC(=O)CC[C@H](NC(=O)c1ccc(CCC2CNc3nc(N)nc(O)c3C2)s1)C(=O)OC(C)(C)C)C(=O)OCC (stereo partly shown)
3: COC(=O)[C@H](CCS(=O)(=O)O)NC(=O)c1ccc(CCC2CNc3nc(N)nc(O)c3C2)s1 (stereo partly shown)
4: Nc1nc(O)c2c(n1)NCC(CCc1ccc(C(=O)N[C@@H](CCC(=O)N[C@H](CC(=O)O)C(=O)O)C(=O)O)s1)C2 (stereo partly shown)
Challenge: # rank_down: sort by IC50, max first Record the ranking as a list of labels in the requested order.
Response given: 1, 2, 3, 4
